Listed below: growth at 10 µM values for each entry.
Test system: SK-OV-3
assay.protocol: Cytotoxicity against human SKOV3 cells assessed as cell growth at 10 uM after 48 hrs by SRB assay
Type: functional
condition.set: SK-OV-3, 48 h, read-out: Activity
Kindly provide the numeric value in % only, without the unit symbol.

// solved cases for growth at 10 µM follow
smiles.repr	readout.unit	growth at 10 µM
Cc1cc(C)n(-c2cn3c(-c4ccccc4)csc3n2)n1	%	89.9
Cc1ccc(-c2csc3nc(-n4nc(C)cc4C)cn23)cc1	%	101
Cc1ccc(-c2csc3nc(N4NC(=O)CC4=O)cn23)cc1	%	101

growth at 10 µM of CC1=NN(c2cn3c(-c4ccc(C)cc4)csc3n2)C(=O)C1 , assay on SK-OV-3, is 95.5

Observed growth at 10 µM, SK-OV-3, CC1=NN(c2cn3c(-c4ccccc4)csc3n2)C(=O)C1 : 88.9

Known value: SK-OV-3 growth at 10 µM of the compound O=C1CN2C(c3ccccc3)=CSC2=N1 equals 89.5

SK-OV-3 assay, compound O=C1CC(=O)N(c2cn3c(-c4ccc(Cl)cc4)csc3n2)N1 , recorded growth at 10 µM = 103

Observed growth at 10 µM on SK-OV-3, entry O=C1CN2C(c3ccc(Cl)cc3)=CSC2=N1 , equals 98.2

Response field growth at 10 µM (SK-OV-3) for item O=C1CC(=O)N(c2cn3c(-c4ccccc4)csc3n2)N1 : 86.8

So the reported growth at 10 µM for Cc1cc(C)n(-c2cn3c(-c4ccc(Cl)cc4)csc3n2)n1 , on SK-OV-3, turned out to be 93.4

Observed growth at 10 µM, SK-OV-3, CC1=NN(c2cn3c(-c4ccc(Cl)cc4)csc3n2)C(=O)C1 : 100

====

System: MOLT-4
assay.protocol: Cytotoxicity against human MOLT4 cells assessed as cell growth at 10 uM after 48 hrs by SRB assay
Format: functional
condition.set: MOLT-4, 48 h, read-out: Activity
measured.property: growth at 10 µM (%)
Only the number, expressed in %, is required.

Worked cases, answers included:
smiles.repr	target.system	readout.unit	endpoint.result
Cc1ccc(-c2csc3nc(N4NC(=O)CC4=O)cn23)cc1	MOLT-4	%	90.3
O=C1CC(=O)N(c2cn3c(-c4ccc(Cl)cc4)csc3n2)N1	MOLT-4	%	79

Recorded growth at 10 µM (molecule CC1=NN(c2cn3c(-c4ccccc4)csc3n2)C(=O)C1 ): 84.4

molecule O=C1CN2C(c3ccc(Cl)cc3)=CSC2=N1 , growth at 10 µM observed: 79.1

The molecule identified as CC1=NN(c2cn3c(-c4ccc(Cl)cc4)csc3n2)C(=O)C1 registered its growth at 10 µM at 65.8

====

assay.protocol: Cytotoxicity against human UO31 cells assessed as cell growth at 10 uM after 48 hrs by SRB assay
Assay type: functional
condition.set: UO-31, 48 h, read-out: Activity
measured.property: growth at 10 µM (%)
Numbers only; they are read as %.

// growth at 10 µM lookup, compound = Cc1ccc(-c2csc3nc(N4NC(=O)CC4=O)cn23)cc1 , result: 74.7

Note to self: growth at 10 µM recorded for CC1=NN(c2cn3c(-c4ccc(Cl)cc4)csc3n2)C(=O)C1 was 80.9

Entry under test: Cc1ccc(-c2csc3nc(-n4nc(C)cc4C)cn23)cc1 . Its growth at 10 µM was 94.4

Lab book: growth at 10 µM of CC1=NN(c2cn3c(-c4ccc(C)cc4)csc3n2)C(=O)C1 noted as 71.6

====

Tested on: MOLT-4
assay.protocol: Cytotoxicity against human MOLT4 cells assessed as cell growth at 10 uM after 48 hrs by SRB assay
Assay type: functional
condition.set: MOLT-4, 48 h, read-out: Activity
growth at 10 µM values, listed per item
# do not omit the unit; it follows the number

In the examples that follow, each entry is paired with its recorded growth at 10 µM.
smiles.repr	target.system	growth at 10 µM
CC1=NN(c2cn3c(-c4ccc(C)cc4)csc3n2)C(=O)C1	MOLT-4	78.9%
Cc1cc(C)n(-c2cn3c(-c4ccc(Cl)cc4)csc3n2)n1	MOLT-4	81.3%
O=C1CC(=O)N(c2cn3c(-c4ccccc4)csc3n2)N1	MOLT-4	101%
Cc1cc(C)n(-c2cn3c(-c4ccccc4)csc3n2)n1	MOLT-4	93.9%
Cc1ccc(-c2csc3nc(-n4nc(C)cc4C)cn23)cc1	MOLT-4	98.4%

Let's switch to this compound now.
Record O=C1CN2C(c3ccccc3)=CSC2=N1 . Reported growth at 10 µM: 95.4%

====

System: TK-10
assay.protocol: Cytotoxicity against human TK10 cells assessed as cell growth at 10 uM after 48 hrs by SRB assay
Format: functional
condition.set: TK-10, 48 h, read-out: Activity
Consider the following compounds and their measured growth at 10 µM readings.
Record the value in %, omitting the unit from your answer.

Example results:
smiles.repr	readout.unit	growth at 10 µM
CC1=NN(c2cn3c(-c4ccccc4)csc3n2)C(=O)C1	%	125
CC1=NN(c2cn3c(-c4ccc(Cl)cc4)csc3n2)C(=O)C1	%	98.8
Cc1ccc(-c2csc3nc(-n4nc(C)cc4C)cn23)cc1	%	141
O=C1CC(=O)N(c2cn3c(-c4ccccc4)csc3n2)N1	%	131
O=C1CN2C(c3ccccc3)=CSC2=N1	%	125

Measured growth at 10 µM of O=C1CC(=O)N(c2cn3c(-c4ccc(Cl)cc4)csc3n2)N1 : 95

The compound identified as Cc1cc(C)n(-c2cn3c(-c4ccccc4)csc3n2)n1 registered its growth at 10 µM at 124

# compound Cc1cc(C)n(-c2cn3c(-c4ccc(Cl)cc4)csc3n2)n1 ; its growth at 10 µM = 128

The measured growth at 10 µM associated with CC1=NN(c2cn3c(-c4ccc(C)cc4)csc3n2)C(=O)C1 reads 135

Given item O=C1CN2C(c3ccc(Cl)cc3)=CSC2=N1 , the value recorded as its growth at 10 µM is 79.9

growth at 10 µM reported for this compound Cc1ccc(-c2csc3nc(N4NC(=O)CC4=O)cn23)cc1 : 139

====

Test system: SNB-19
assay.protocol: Cytotoxicity against human SNB19 cells assessed as cell growth at 10 uM after 48 hrs by SRB assay
Format: functional
condition.set: SNB-19, 48 h, read-out: Activity
Listing of entries alongside the reported growth at 10 µM.
Give the number; % is assumed, so skip it.

Worked examples, 5 molecules total:
smiles.repr	target.system	measured.property	readout.unit	endpoint.result
Cc1ccc(-c2csc3nc(-n4nc(C)cc4C)cn23)cc1	SNB-19	growth at 10 µM	%	100
CC1=NN(c2cn3c(-c4ccc(Cl)cc4)csc3n2)C(=O)C1	SNB-19	growth at 10 µM	%	88
O=C1CN2C(c3ccccc3)=CSC2=N1	SNB-19	growth at 10 µM	%	99.7
Cc1cc(C)n(-c2cn3c(-c4ccc(Cl)cc4)csc3n2)n1	SNB-19	growth at 10 µM	%	92.8
Cc1cc(C)n(-c2cn3c(-c4ccccc4)csc3n2)n1	SNB-19	growth at 10 µM	%	96.5

The reported SNB-19 growth at 10 µM of CC1=NN(c2cn3c(-c4ccccc4)csc3n2)C(=O)C1 is 90.8

The recorded growth at 10 µM with SNB-19 for O=C1CC(=O)N(c2cn3c(-c4ccccc4)csc3n2)N1 was 91

So the reported growth at 10 µM for Cc1ccc(-c2csc3nc(N4NC(=O)CC4=O)cn23)cc1 , on SNB-19, turned out to be 102

Field growth at 10 µM (SNB-19), entry O=C1CN2C(c3ccc(Cl)cc3)=CSC2=N1 : 100

Tested system SNB-19; growth at 10 µM recorded for CC1=NN(c2cn3c(-c4ccc(C)cc4)csc3n2)C(=O)C1 was 100

Form field, growth at 10 µM with SNB-19, item O=C1CC(=O)N(c2cn3c(-c4ccc(Cl)cc4)csc3n2)N1 : 90.2

====

Test system: SK-MEL-5
assay.protocol: Cytotoxicity against human SK-MEL-5 cells assessed as cell growth at 10 uM after 48 hrs by SRB assay
Assay type: functional
condition.set: SK-MEL-5, 48 h, read-out: Activity
measured.property: growth at 10 µM (%)
Field: numeric (%). Do not append units.

Before answering, review these 3 worked examples.
smiles.repr	target.system	growth at 10 µM, %
Cc1ccc(-c2csc3nc(-n4nc(C)cc4C)cn23)cc1	SK-MEL-5	98.9
CC1=NN(c2cn3c(-c4ccccc4)csc3n2)C(=O)C1	SK-MEL-5	102
Cc1ccc(-c2csc3nc(N4NC(=O)CC4=O)cn23)cc1	SK-MEL-5	95.9

growth at 10 µM for SK-MEL-5 with input CC1=NN(c2cn3c(-c4ccc(Cl)cc4)csc3n2)C(=O)C1 equals 92.4

SK-MEL-5 data for O=C1CN2C(c3ccc(Cl)cc3)=CSC2=N1 ; its growth at 10 µM: 105

Lab note: compound CC1=NN(c2cn3c(-c4ccc(C)cc4)csc3n2)C(=O)C1 tested on SK-MEL-5; recorded growth at 10 µM was 90

Item: Cc1cc(C)n(-c2cn3c(-c4ccc(Cl)cc4)csc3n2)n1 | System: SK-MEL-5 | growth at 10 µM: 85.5

// growth at 10 µM (SK-MEL-5) for O=C1CC(=O)N(c2cn3c(-c4ccc(Cl)cc4)csc3n2)N1 = 99.7

SK-MEL-5 data for O=C1CN2C(c3ccccc3)=CSC2=N1 ; its growth at 10 µM: 99.8

Each recorded value in this set is attributed to ChEMBL document CHEMBL3120060.
